Molecular target: hERG channel (Homo sapiens (Human))
Assay: Human ERG channel binding assay (fluorescence polarization)
Details: Table 1; tracer displacement, 4 h at room temperature
pIC50: −log10 of the molar value.
parameter: pIC50

molecule="CC(C)NC(=O)[C@H]1CN(C2CCN(c3nnc(N)[nH]3)CC2)[C@@H](Cc2ccc(Cl)cc2)CO1 [Example 65, 2,2,2-trifluoroacetate]" observed_measurement="< 4.00"
molecule="Nc1nnc(N2CCC(N3C[C@H]([C@@H](O)C(F)(F)F)OC[C@@H]3Cc3ccc(Cl)cc3)CC2)[nH]1 [Example 17, 2,2,2-trifluoroacetate]" observed_measurement="4.00 to 4.60"
molecule="Nc1nnc(N2CCC(N3C[C@H](CN4CCCC4)OC[C@@H]3Cc3ccc(Cl)cc3)CC2)[nH]1 [Example 28, 2,2,2-trifluoroacetate]" observed_measurement="< 4.00"
molecule="CC1CN(C(=O)[C@H]2CN(C3CCN(c4nnc(N)[nH]4)CC3)[C@@H](Cc3ccc(Cl)cc3)CO2)C1 [Example 61, 2,2,2-trifluoroacetate]" observed_measurement="< 4.00"
molecule="Nc1nnc(N2CCC(N3C[C@H](C(=O)N4CC(F)C4)OC[C@@H]3Cc3ccc(Cl)cc3)CC2)[nH]1 [Example 62, 2,2,2-trifluoroacetate]" observed_measurement="< 4.00"
molecule="Cc1nc([C@H]2CN(C3CCN(c4nnc(N)[nH]4)CC3)[C@@H](Cc3ccc(Cl)cc3)CO2)oc1C [Example 50, 2,2,2-trifluoroacetate]" observed_measurement="5.00 to 6.00"
molecule="CNS(=O)(=O)CCNC(=O)[C@H]1CN(C2CCN(c3nnc(N)[nH]3)CC2)[C@@H](Cc2ccc(Cl)cc2)CO1 [Example 46, 2,2,2-trifluoroacetate]" observed_measurement="< 4.00"
molecule="Nc1nnc(N2CCC(N3C[C@H](Cn4cc(Cl)cn4)OC[C@@H]3Cc3ccc(Cl)cc3)CC2)[nH]1 [Example 44, 2,2,2-trifluoroacetate]" observed_measurement="5.00 to 6.00"
molecule="N#Cc1cnn(C[C@H]2CN(C3CCN(c4nnc(N)[nH]4)CC3)[C@@H](Cc3ccc(Cl)cc3)CO2)c1 [Example 8, 2,2,2-trifluoroacetate]" observed_measurement="4.00 to 4.60"
molecule="CO[C@@H]1CC[C@H](Cc2ccc(Cl)cc2)N(C2CCN(c3nnc(N)[nH]3)CC2)C1 [Example 71, 2,2,2-trifluoroacetate]" observed_measurement="4.00 to 4.60"
molecule="CC(C)(C)NC(=O)[C@H]1CN(C2CCN(c3nnc(N)[nH]3)CC2)[C@@H](Cc2ccc(Cl)cc2)CO1 [Example 66, 2,2,2-trifluoroacetate]" observed_measurement="< 4.00"
molecule="CCC(O)(CC)[C@H]1CN(C2CCN(c3nnc(N)[nH]3)CC2)[C@@H](Cc2ccc(Cl)cc2)CO1 [Example 68, 2,2,2-trifluoroacetate]" observed_measurement="4.00 to 4.60"

* * *

Quick reference: pIC50 of the listed items.
Target: recombinant human CHIT1 (Homo sapiens (Human), UniProt Q13231)
Sequence (Q13231 22-466): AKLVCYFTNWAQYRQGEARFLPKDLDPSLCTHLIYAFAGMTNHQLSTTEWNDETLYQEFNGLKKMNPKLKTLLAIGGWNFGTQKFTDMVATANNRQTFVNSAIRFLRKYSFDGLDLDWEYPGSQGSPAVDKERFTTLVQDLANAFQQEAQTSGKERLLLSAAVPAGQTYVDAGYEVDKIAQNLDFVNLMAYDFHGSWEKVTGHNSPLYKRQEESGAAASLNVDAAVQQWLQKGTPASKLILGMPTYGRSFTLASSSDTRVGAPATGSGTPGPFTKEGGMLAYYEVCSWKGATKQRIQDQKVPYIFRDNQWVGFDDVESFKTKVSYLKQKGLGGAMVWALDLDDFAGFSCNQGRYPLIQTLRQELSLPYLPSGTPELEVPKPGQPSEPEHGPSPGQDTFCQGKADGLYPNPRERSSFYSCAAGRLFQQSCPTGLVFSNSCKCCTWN
Assay: Human CHIT1 activity assay
Conditions: recombinant human CHIT1, citrate buffer pH 5.2, 37° C., 60 minutes; read-out: hCHIT1, IC50
pIC50: −log10 of the molar value. Structures can show the parent of a compound that is named as a salt.
parameter: pIC50

compound="Cn1ccc([C@H]2CN(C3CCN(c4nnc(N)[nH]4)CC3)[C@@H](Cc3ccc(Cl)cc3)CO2)n1 [Example 9, 2,2,2-trifluoroacetate]" test_target="recombinant human CHIT1 (Homo sapiens (Human), UniProt Q13231)" parameter=pIC50 observed_measurement="> 7.00"
compound="Nc1nnc(N2CCC(N3C[C@H](C(=O)NC4CC4)OC[C@@H]3Cc3ccc(Cl)cc3)CC2)[nH]1 [Example 24, 2,2,2-trifluoroacetate]" test_target="recombinant human CHIT1 (Homo sapiens (Human), UniProt Q13231)" parameter=pIC50 observed_measurement="> 7.00"
compound="Nc1nnc(N2CCC(N3C[C@H](CN4CC[C@@H](O)C4)OC[C@@H]3Cc3ccc(Cl)cc3)CC2)[nH]1 [Example 31, 2,2,2-trifluoroacetate]" test_target="recombinant human CHIT1 (Homo sapiens (Human), UniProt Q13231)" parameter=pIC50 observed_measurement="6.00 to 7.00"
compound="Nc1nnc(N2CCC(N3C[C@H](Cn4cc(F)cn4)OC[C@@H]3Cc3ccc(Cl)cc3)CC2)[nH]1 [Example 36, 2,2,2-trifluoroacetate]" test_target="recombinant human CHIT1 (Homo sapiens (Human), UniProt Q13231)" parameter=pIC50 observed_measurement="> 7.00"
compound="Nc1nnc(N2CCC(N3CC4CC4C[C@@H]3Cc3ccc(Cl)cc3)CC2)[nH]1 (stereo partly drawn) [Example 72, 2,2,2-trifluoroacetate]" test_target="recombinant human CHIT1 (Homo sapiens (Human), UniProt Q13231)" parameter=pIC50 observed_measurement="6.00 to 7.00"
compound="Nc1nnc(N2CCC(N3C[C@H](CF)OC[C@@H]3Cc3ccc(Br)cc3)CC2)[nH]1 [Example 76, 2,2,2-trifluoroacetate]" test_target="recombinant human CHIT1 (Homo sapiens (Human), UniProt Q13231)" parameter=pIC50 observed_measurement="> 7.00"
compound="Nc1nnc(N2CCC(N3C[C@H](C(=O)NCC(F)(F)F)OC[C@@H]3Cc3ccc(Cl)cc3)CC2)[nH]1 [Example 26, 2,2,2-trifluoroacetate]" test_target="recombinant human CHIT1 (Homo sapiens (Human), UniProt Q13231)" parameter=pIC50 observed_measurement="6.00 to 7.00"
compound="C[S+]([O-])C[C@H]1CN(C2CCN(c3nnc(N)[nH]3)CC2)[C@@H](Cc2ccc(Cl)cc2)CO1 (stereo partly drawn) [Example 32, dihydrochloride]" test_target="recombinant human CHIT1 (Homo sapiens (Human), UniProt Q13231)" parameter=pIC50 observed_measurement="> 7.00"
compound="Nc1nnc(N2CCC(N3C[C@H](O)CC[C@@H]3Cc3ccc(Cl)cc3)CC2)[nH]1 [Example 70, 2,2,2-trifluoroacetate]" test_target="recombinant human CHIT1 (Homo sapiens (Human), UniProt Q13231)" parameter=pIC50 observed_measurement="> 7.00"
compound="Nc1nnc(N2CCC(N3C[C@H](CF)OC[C@@H]3Cc3ccc(Cl)cc3)CC2)[nH]1 [Example 3, 2,2,2-trifluoroacetate]" test_target="recombinant human CHIT1 (Homo sapiens (Human), UniProt Q13231)" parameter=pIC50 observed_measurement="> 7.00"
compound="Nc1nnc(N2CCC(N3C[C@H]([C@H](O)C(F)(F)F)OC[C@@H]3Cc3ccc(Cl)cc3)CC2)[nH]1 [Example 16, 2,2,2-trifluoroacetate]" test_target="recombinant human CHIT1 (Homo sapiens (Human), UniProt Q13231)" parameter=pIC50 observed_measurement="> 7.00"
compound="Nc1nnc(N2CCC(N3C[C@H](CN4CC(F)C4)OC[C@@H]3Cc3ccc(Cl)cc3)CC2)[nH]1 [Example 37, 2,2,2-trifluoroacetate]" test_target="recombinant human CHIT1 (Homo sapiens (Human), UniProt Q13231)" parameter=pIC50 observed_measurement="> 7.00"

* * *

Target: hERG channel (Homo sapiens (Human), UniProt Q12809)
Sequence (Q12809 whole entry): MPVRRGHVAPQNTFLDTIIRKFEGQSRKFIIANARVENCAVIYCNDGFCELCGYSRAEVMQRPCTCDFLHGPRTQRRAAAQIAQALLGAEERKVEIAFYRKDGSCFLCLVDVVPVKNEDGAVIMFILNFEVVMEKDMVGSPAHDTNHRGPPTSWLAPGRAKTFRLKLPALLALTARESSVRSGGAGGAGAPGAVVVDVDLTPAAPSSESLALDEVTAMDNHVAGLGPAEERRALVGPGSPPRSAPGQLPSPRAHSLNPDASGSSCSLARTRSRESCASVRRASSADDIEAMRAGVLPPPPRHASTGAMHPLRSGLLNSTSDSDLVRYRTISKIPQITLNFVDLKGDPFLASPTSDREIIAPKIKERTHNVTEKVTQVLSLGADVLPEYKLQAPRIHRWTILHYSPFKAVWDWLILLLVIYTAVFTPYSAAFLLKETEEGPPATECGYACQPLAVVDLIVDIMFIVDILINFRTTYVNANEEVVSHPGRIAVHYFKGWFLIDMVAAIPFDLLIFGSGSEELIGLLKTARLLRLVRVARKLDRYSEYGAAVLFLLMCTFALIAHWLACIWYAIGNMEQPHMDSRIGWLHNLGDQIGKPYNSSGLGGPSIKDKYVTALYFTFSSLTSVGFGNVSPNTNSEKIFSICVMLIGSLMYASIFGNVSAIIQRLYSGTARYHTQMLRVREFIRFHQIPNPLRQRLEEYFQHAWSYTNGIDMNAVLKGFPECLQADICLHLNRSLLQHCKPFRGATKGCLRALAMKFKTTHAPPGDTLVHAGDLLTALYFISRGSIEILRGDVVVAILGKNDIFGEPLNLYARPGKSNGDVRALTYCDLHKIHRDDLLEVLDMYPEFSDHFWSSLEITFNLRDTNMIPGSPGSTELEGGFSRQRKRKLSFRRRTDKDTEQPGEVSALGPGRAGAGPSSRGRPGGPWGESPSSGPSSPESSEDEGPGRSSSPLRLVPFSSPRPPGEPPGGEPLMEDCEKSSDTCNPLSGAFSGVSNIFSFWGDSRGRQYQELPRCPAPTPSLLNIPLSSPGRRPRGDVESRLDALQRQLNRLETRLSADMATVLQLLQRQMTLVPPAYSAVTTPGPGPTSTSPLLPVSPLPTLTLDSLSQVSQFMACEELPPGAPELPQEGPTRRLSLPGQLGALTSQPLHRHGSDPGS
Assay: Human ERG channel binding assay (fluorescence polarization)
Conditions: Table 2, comparative examples; tracer displacement, 4 h at room temperature
Method: Human ERG Channel Binding Assay Fluorescence polarization assay based on the principle of fluorescence polarization where a red-shifted fluorescent tracer is displaced from the hERG channel by compounds that bind to the channel was used to establish the binding of the compounds to hERG channel. […] The IC50 values were calculated using GraphPad Prism.
pIC50: −log10 of the molar value.
parameter: pIC50

compound="CN1C[C@H](Cc2ccc(Cl)cc2)N(C2CCN(c3nnc(N)[nH]3)CC2)C[C@@H]1CC1CCCCC1 [Example C11, reference compound]" observed_measurement="> 6.00"
compound="Nc1nnc(N2CCC(N3CCC[C@@H]3Cc3ccc(Cl)cc3)CC2)[nH]1 [Example C7, reference compound]" observed_measurement="5.00 to 6.00"
compound="CN1C[C@H](Cc2ccc(Cl)cc2)N(C2CCN(c3nnc(N)[nH]3)CC2)Cc2cc(Cl)ccc21 [Example C18, reference compound]" observed_measurement="> 6.00"
compound="COC(C)(C)[C@H]1CN(C2CCN(c3nnc(N)[nH]3)CC2)[C@@H](Cc2ccc(Cl)cc2)CO1 [Example C3, reference compound]" observed_measurement="4.60 to 5.00"
compound="Nc1nnc(N2CCC(N3Cc4cc(Cl)ccc4OC[C@@H]3Cc3ccc(Cl)cc3)CC2)[nH]1 [Example C20, reference compound]" observed_measurement="5.00 to 6.00"
compound="CC(C)C[C@H]1CN(C2CCN(c3nnc(N)[nH]3)CC2)[C@@H](Cc2ccc(Cl)cc2)CO1 [Example C2, reference compound]" observed_measurement="5.00 to 6.00"
compound="CN1C[C@H](Cc2ccc(Cl)cc2)N(C2CCN(c3nnc(N)[nH]3)CC2)C[C@@H]1Cc1ccc(Cl)cc1 [Example C10, reference compound]" observed_measurement="> 6.00"
compound="Nc1nnc(N2CCC(N3C[C@@H](O)C[C@@H]3Cc3ccc(Cl)cc3)CC2)[nH]1 [Example C14, reference compound]" observed_measurement="4.60 to 5.00"
compound="Nc1nnc(N2CCC(N3CCCC[C@@H]3Cc3ccc(Cl)cc3)CC2)[nH]1 [Example C4, reference compound]" observed_measurement="5.00 to 6.00"
compound="CN1C[C@H](Cc2ccc(Cl)cc2)N(C2CCN(c3nnc(N)[nH]3)CC2)Cc2ccccc21 [Example C17, reference compound]" observed_measurement="5.00 to 6.00"
compound="CC(C)CN1CCN(C2CCN(c3nnc(N)[nH]3)CC2)[C@@H](Cc2ccc(Cl)cc2)C1 [Example C9, reference compound]" observed_measurement="5.00 to 6.00"
